SYSTEM: Human VPS34 (Homo sapiens (Human), UniProt Q8NEB9)
Sequence (Q8NEB9 whole entry): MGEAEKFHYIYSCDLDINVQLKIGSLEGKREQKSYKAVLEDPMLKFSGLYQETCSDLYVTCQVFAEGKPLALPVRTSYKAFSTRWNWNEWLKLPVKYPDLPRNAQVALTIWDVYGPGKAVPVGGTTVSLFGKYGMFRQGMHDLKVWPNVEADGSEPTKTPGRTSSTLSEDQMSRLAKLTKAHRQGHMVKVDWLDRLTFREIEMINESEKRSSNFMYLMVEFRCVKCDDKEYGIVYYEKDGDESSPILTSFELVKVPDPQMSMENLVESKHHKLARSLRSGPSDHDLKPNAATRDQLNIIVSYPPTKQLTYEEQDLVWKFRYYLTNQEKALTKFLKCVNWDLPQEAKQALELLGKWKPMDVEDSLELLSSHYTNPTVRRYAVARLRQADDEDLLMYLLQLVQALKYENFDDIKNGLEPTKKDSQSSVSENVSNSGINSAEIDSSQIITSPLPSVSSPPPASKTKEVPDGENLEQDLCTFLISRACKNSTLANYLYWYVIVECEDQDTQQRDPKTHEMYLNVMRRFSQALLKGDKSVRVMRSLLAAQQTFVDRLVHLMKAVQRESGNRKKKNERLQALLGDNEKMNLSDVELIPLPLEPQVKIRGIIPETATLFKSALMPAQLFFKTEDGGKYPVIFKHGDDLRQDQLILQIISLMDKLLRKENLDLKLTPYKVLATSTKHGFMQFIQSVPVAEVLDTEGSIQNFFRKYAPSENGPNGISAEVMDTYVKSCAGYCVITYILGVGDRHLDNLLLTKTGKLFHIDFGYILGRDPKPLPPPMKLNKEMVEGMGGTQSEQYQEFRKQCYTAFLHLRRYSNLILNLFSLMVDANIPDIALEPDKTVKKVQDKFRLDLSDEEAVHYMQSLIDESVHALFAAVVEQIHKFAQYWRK
ASSAY_DETAILS: Human VPS34 enzyme assay (Adapta TR-FRET)
Assay type: biochemical
TEST_CONDITIONS: compound concentration 1.11 μM; read-out: Percent Inhibition
Can you tell me inhibition at 1.11 µM for the items I'm about to list?
State the answer as a number, implicitly in %.

Inquiry: # assay system Human VPS34 (Homo sapiens (Human), UniProt Q8NEB9): give inhibition at 1.11 µM of CC(=O)Nc1cc(-c2cnc(Cl)c(C(=O)N3CCC3)c2)c(C)cn1
Reply text: 36

Inquiry: Print Human VPS34 (Homo sapiens (Human), UniProt Q8NEB9) inhibition at 1.11 µM for CC(=O)Nc1cc(-c2cnc(N)c(N3CCCN(C)S3(=O)=O)c2)ccn1 .
Reply text: 73

Inquiry: Lab note: record inhibition at 1.11 µM of Cc1nccc(Nc2cc(-c3cncc(C(=O)N(C)C45CC(C4)C5)c3)ccn2)n1 tested on Human VPS34 (Homo sapiens (Human), UniProt Q8NEB9).
Reply text: 90

Inquiry: Determine reported inhibition at 1.11 µM for CC(=O)Nc1cc(-c2cnc(C)c(N(C)C(=O)c3ccc(F)cc3F)c2)ccn1 ; test system: Human VPS34 (Homo sapiens (Human), UniProt Q8NEB9).
Reply text: 93

Inquiry: Give the observed inhibition at 1.11 µM of Cc1ncc(-c2ccnc(NC(=O)N3CCCC3)c2)cc1NS(=O)(=O)c1ccc(F)cc1F for Human VPS34 (Homo sapiens (Human), UniProt Q8NEB9).
Reply text: 88

Inquiry: Give Human VPS34 (Homo sapiens (Human), UniProt Q8NEB9) inhibition at 1.11 µM for the following molecule: Cc1nccc(Nc2cc(-c3cnc(C)c(NC(=O)c4ccc(F)cc4F)c3)ccn2)n1
Reply text: 85

Inquiry: Find the measured inhibition at 1.11 µM of Cc1nccc(Nc2cc(-c3cnc(C)c(C(=O)N4CCCCC4)c3)ccn2)n1 with Human VPS34 (Homo sapiens (Human), UniProt Q8NEB9) as test system.
Reply text: 81

----------
SYSTEM: Human VPS34 (Homo sapiens (Human), UniProt Q8NEB9)
ASSAY_DETAILS: Human VPS34 enzyme assay (Adapta TR-FRET)
Format: biochemical
TEST_CONDITIONS: compound concentration 1.11 μM; read-out: Percent Inhibition
Assignment: determine reported inhibition at 1.11 µM for the given compounds.

Inquiry: Given the compound CC(=O)Nc1cc(-c2cnc(Cl)c(N3CCCS3(=O)=O)c2C)ccn1 , write its reported inhibition at 1.11 µM.
Reply text: 100%

Inquiry: Note down inhibition at 1.11 µM recorded for COc1ncc(-c2ccnc(Nc3ccnc(C)n3)c2)cc1S(=O)(=O)NC1CCC1
Reply text: 99%

Inquiry: Look up inhibition at 1.11 µM of CC(=O)Nc1cc(-c2cnc(C)c(NS(C)(=O)=O)c2)ccn1 and report it.
Reply text: > 99%

Inquiry: Give inhibition at 1.11 µM for COC(=O)Nc1cc(-c2cnc(C)c(N3CCCS3(=O)=O)c2)ccn1
Reply text: > 99%

Inquiry: Note inhibition at 1.11 µM for the compound shown: COC(=O)Nc1cc(-c2cncc(S(=O)(=O)N3CCOCC3)c2)ccn1
Reply text: > 99%

Inquiry: For the compound CCS(=O)(=O)c1cc(-c2ccnc(NC(C)=O)c2)cnc1N , report inhibition at 1.11 µM.
Reply text: > 99%

Inquiry: Please report the measured inhibition at 1.11 µM for CC(=O)Nc1cc(-c2cnc(N(C)C)c(C(=O)N(C)c3ccc(F)cc3F)c2)ccn1
Reply text: > 99%

Inquiry: Return the recorded inhibition at 1.11 µM value; entry: Cc1nccc(Nc2cc(-c3cnc(Cl)c(NS(=O)(=O)c4ccc(F)cc4F)c3C)c(F)cn2)n1
Reply text: 94%

Source listed as patent US9802960B2.
